Kindly state solubility kinetic for each of the entries shown.
Conditions: buffer; pH 7.4; 200.0 µM

Prompt line: Output measured solubility kinetic for this item: CC(C)CCNC(=O)NC(=O)CSc1ncccn1
Response line: 28.9 µg/mL

Prompt line: Output measured solubility kinetic for this item: O=C(Nc1ccccc1)OCc1cnc(Cl)s1
Response line: 36.7 µg/mL

Prompt line: Output measured solubility kinetic for this item: CC1(C)OC(=O)C(=CNc2ccccn2)C(=O)O1
Response line: 28.5 µg/mL

Prompt line: Output measured solubility kinetic for this item: O=C(CN1CCN(c2ccccc2)CC1)N1CCc2ccccc21
Response line: 7 µg/mL

Prompt line: Output measured solubility kinetic for this item: COc1ccccc1NC(=O)C1CCCN1C(=O)NC1CCCCC1 (centres undefined)
Response line: 42.4 µg/mL

Prompt line: Output measured solubility kinetic for this item: COc1ccccc1Cn1c(=S)[nH]c2ccc(F)cc2c1=O
Response line: 1.6 µg/mL

Prompt line: Output measured solubility kinetic for this item: Cn1c(=NC(=O)COc2ccccc2)sc2cc(F)cc(F)c21
Response line: < 0.4 µg/mL

Prompt line: Output measured solubility kinetic for this item: COc1ccccc1OCC(=O)Nc1ccc(S(=O)(=O)N(C)c2ccccc2)cc1
Response line: 2.4 µg/mL

Prompt line: Output measured solubility kinetic for this item: O=C(CCSCc1ccccc1Cl)NCc1cccs1
Response line: 32.4 µg/mL

Prompt line: Output measured solubility kinetic for this item: O=C(NC1CC2CCCC(C1)N2Cc1ccccc1)c1cccc(F)c1 (centres undefined)
Response line: 45.1 µg/mL

Prompt line: Output measured solubility kinetic for this item: O=C(COC(=O)c1cc(Cl)ccc1O)Nc1ccccc1C(=O)NC1CC1
Response line: 2 µg/mL

Prompt line: Output measured solubility kinetic for this item: COc1cc(OC)cc(C(=O)NCC(=O)OCC(=O)NC(C)CCc2ccccc2)c1 (centres undefined)
Response line: > 64.3 µg/mL

Prompt line: Output measured solubility kinetic for this item: COc1cc2sc(NC(=O)c3ccco3)nc2cc1Cl
Response line: < 0.3 µg/mL

Prompt line: Output measured solubility kinetic for this item: CCn1c(COc2ccccc2OC)nc2ccccc21
Response line: 41.9 µg/mL

Prompt line: Output measured solubility kinetic for this item: COC(=O)c1cnn2c1C(=O)N(Cc1cccs1)CC2
Response line: > 43.7 µg/mL

Prompt line: Output measured solubility kinetic for this item: COc1ccccc1/C=C/C(=O)Nc1ccc(N2CCOCC2)cc1
Response line: 1 µg/mL

Prompt line: Output measured solubility kinetic for this item: CC(NC(=O)CCSCc1ccccc1F)c1ccccc1 (centres undefined)
Response line: 44.5 µg/mL

Prompt line: Output measured solubility kinetic for this item: O=C(O)C1C2CCC(O2)C1C(=O)Nc1ccc(Cl)cc1F (centres undefined)
Response line: > 47.1 µg/mL

Prompt line: Output measured solubility kinetic for this item: O=C(C(Cl)Cl)N1CCN(Cc2ccc3c(c2)OCO3)CC1
Response line: 42.6 µg/mL

Prompt line: Output measured solubility kinetic for this item: COc1cc(C(=O)Cc2nc3ccccc3n2C)cc(OC)c1OC
Response line: > 51.1 µg/mL

Prompt line: Output measured solubility kinetic for this item: O=C(O)C(Cc1ccc(O)cc1)N1C(=O)c2ccccc2C1=O (centres undefined)
Response line: > 46.7 µg/mL

Prompt line: Output measured solubility kinetic for this item: Cl.Clc1ccc2[nH]c3c(c2c1)CCNC3
Response line: 32.4 µg/mL

Prompt line: Output measured solubility kinetic for this item: COCCNC(=O)c1cc2cc3ccc(OC)cc3nc2o1
Response line: 42.1 µg/mL

Prompt line: Output measured solubility kinetic for this item: CCOc1ccc(CCNC(=O)/C=C/c2ccco2)cc1OCC
Response line: > 49.4 µg/mL

Prompt line: Output measured solubility kinetic for this item: CCc1cccc(NS(=O)(=O)c2csc(C(N)=O)c2)c1
Response line: > 46.6 µg/mL

Prompt line: Output measured solubility kinetic for this item: Cc1ccccc1C(=O)Nc1ccccc1C(=O)NC1CC1
Response line: > 44.2 µg/mL

Prompt line: Output measured solubility kinetic for this item: O=C(Nc1cccc([N+](=O)[O-])c1)C1COc2ccccc2O1 (centres undefined)
Response line: 5.4 µg/mL

Prompt line: Output measured solubility kinetic for this item: COC(=O)C1CCN(C(=O)c2ccc(Cl)c(S(=O)(=O)NCc3ccco3)c2)CC1
Response line: 53.6 µg/mL

Prompt line: Output measured solubility kinetic for this item: COc1ccccc1CCNS(=O)(=O)c1ccc(C(=O)O)n1C
Response line: > 50.8 µg/mL

Prompt line: Output measured solubility kinetic for this item: CC(C)(C)C(=O)N1CCN(C(=O)c2ccco2)CC1
Response line: > 39.6 µg/mL

Prompt line: Output measured solubility kinetic for this item: C=CCN1C(=O)C(CC(=O)O)SC1=Nc1cccc([N+](=O)[O-])c1 (centres undefined)
Response line: > 50.3 µg/mL

Prompt line: Output measured solubility kinetic for this item: Clc1ccccc1OCCCn1ccnc1
Response line: 26.4 µg/mL

Prompt line: Output measured solubility kinetic for this item: COC(CNC(=O)c1coc2nc3ccccc3nc12)OC
Response line: 34.8 µg/mL

Prompt line: Output measured solubility kinetic for this item: O=c1[nH]c2ccccc2[n+]([O-])c1-c1ccccc1
Response line: > 35.7 µg/mL
